I'd appreciate it if you could supply % ΔcGI values for the items below.
- Tested on: M. avium ATCC 25291
- Assay type: cell-based, M. avium subspecies avium
- applied conditions: 64 μg/ml; M. avium 25291; vs 3.2% DMSO control
Give bare numbers, in %.

See these solved cases before continuing.
Asked: Param readout = % ΔcGI; param system = M. avium ATCC 25291; param query = O=C1NC(=O)c2ccccc21 [Phthalimide, phthalimide] ; response: value
Given back: 12

Asked: Param readout = % ΔcGI; param system = M. avium ATCC 25291; param query = C[C@@H]1C[C@@H]([C@H](O)CC2CC(=O)NC(=O)C2)C(=O)[C@@H](C)C1 [Cycloheximide, cycloheximide] ; response: value
Given back: −57

// next entry
Asked: Param readout = % ΔcGI; param system = M. avium ATCC 25291; param query = C=CC[C@@H]1/C=C(\C)C[C@H](C)C[C@H](OC)[C@H]2O[C@@](O)(C(=O)C(=O)N3CCCC[C@H]3C(=O)O[C@H](/C(C)=C/[C@@H]3CC[C@@H](O)[C@H](OC)C3)[C@H](C)[C@@H](O)CC1=O)[C@H](C)C[C@@H]2OC ; response: value
Given back: 53
